Experiment: Determination of stability against human liver microsomes
Type: in vitro ADME
Details: human liver microsomes 1 mg protein/mL, 2 mM NADPH, pH 7.4, 37 C; read-out: Stability against human liver microsome NADPH+ T1/2
Method: The enzyme reaction was quenched with three volumes of acetonitrile, and the reaction mixture was centrifuged at 1,500 rpm for ten minutes to provide a supernatant as a sample to be measured. Stability against human liver microsomes was measured using HPLC/MS to determine the compounds in the sample.
half-life overview

molecule	half-life
O=C(CO/N=C\c1cc(C(=O)NOCCO)c(Nc2ccc(I)cc2F)c(F)c1F)NCCO	> 6 h
O=C(NOCCO)c1cc(/C=N/OCCN2CCCC2)c(F)c(F)c1Nc1ccc(I)cc1F	> 6 h
O=C(NOCCO)c1cc(/C=N/OCCN2CCOCC2)c(F)c(F)c1Nc1ccc(I)cc1F	> 6 h
O=C(NOCCO)c1cc(/C=N\OCC(O)CO)c(F)c(F)c1Nc1ccc(I)cc1F (stereo not drawn)	> 6 h
CN(C)CCO/N=C/c1cc(C(=O)NOCCO)c(Nc2ccc(I)cc2F)c(F)c1F	> 6 h

GET /values?readout=half-life&item= `O=C(NOCCO)c1cc(/C=N/OCCO)c(F)c(F)c1Nc1ccc(I)cc1F`
1.08 h

GET /values?readout=half-life&item= `C#Cc1ccc(Nc2c(C(=O)NOCCO)cc(/C=N/OCCCO)c(F)c2F)c(F)c1`
4.12 h

GET /values?readout=half-life&item= `CNC(=O)CO/N=C/c1cc(C(=O)NOCCO)c(Nc2ccc(I)cc2F)c(F)c1F`
> 6 h

GET /values?readout=half-life&item= CC(O)CO/N=C/c1cc(C(=O)NOCCO)c(Nc2ccc(I)cc2F)c(F)c1F (stereo not drawn)
2.67 h

GET /values?readout=half-life&item= `O=C(NOCCO)c1cc(/C=N/OCCN2CCC[C@H]2CO)c(F)c(F)c1Nc1ccc(I)cc1F`
> 6 h

GET /values?readout=half-life&item= `CNC(=O)CCCO/N=C\c1cc(C(=O)NOCCO)c(Nc2ccc(I)cc2F)c(F)c1F`
1.62 h

GET /values?readout=half-life&item= O=C(NOCCO)c1cc(/C=N/OCC(O)CO)c(F)c(F)c1Nc1ccc(I)cc1F (racemic)
1.51 h

GET /values?readout=half-life&item= `O=C(NOCCO)c1cc(/C=N/OCCCO)c(F)c(F)c1Nc1ccc(I)cc1F`
> 6 h

GET /values?readout=half-life&item= `C#Cc1ccc(Nc2c(C(=O)NOCCO)cc(/C=N/OCCC(=O)NC)c(F)c2F)c(F)c1`
> 6 h

GET /values?readout=half-life&item= `CC(=O)NCCO/N=C/c1cc(C(=O)NOCCO)c(Nc2ccc(I)cc2F)c(F)c1F`
> 6 h

###

System: MEK (Homo sapiens, UniProt Q02750) | Read-out: pIC50
Sequence (Q02750 whole entry): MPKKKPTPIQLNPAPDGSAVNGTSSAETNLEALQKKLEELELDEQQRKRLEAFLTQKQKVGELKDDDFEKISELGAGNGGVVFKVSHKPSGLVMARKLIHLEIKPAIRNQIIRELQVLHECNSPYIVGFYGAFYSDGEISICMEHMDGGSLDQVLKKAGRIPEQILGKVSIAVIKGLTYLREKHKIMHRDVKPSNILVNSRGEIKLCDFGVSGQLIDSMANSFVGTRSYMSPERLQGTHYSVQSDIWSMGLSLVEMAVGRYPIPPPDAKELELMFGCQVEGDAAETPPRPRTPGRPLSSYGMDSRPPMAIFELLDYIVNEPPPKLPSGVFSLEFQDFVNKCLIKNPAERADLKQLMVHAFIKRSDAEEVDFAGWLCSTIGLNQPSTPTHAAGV
pIC50: −log10 of the molar value.
reportedEndpoint: pIC50

Examples with their reported pIC50 follow.
compound	reportedEndpoint	recordedNumber
CC(=O)NCCO/N=C\c1cc(C(=O)NOCCO)c(Nc2ccc(I)cc2F)c(F)c1F	pIC50	7.68
CC(O)CO/N=C/c1cc(C(=O)NOCCO)c(Nc2ccc(I)cc2F)c(F)c1F (centres unmarked)	pIC50	6.96
C#Cc1ccc(Nc2c(C(=O)NOCCO)cc(/C=N/OCCC(=O)NC)c(F)c2F)c(F)c1	pIC50	7.19
CS(=O)(=O)NCCO/N=C/c1cc(C(=O)NOCCO)c(Nc2ccc(I)cc2F)c(F)c1F	pIC50	6.68
O=C(NOCCO)c1cc(/C=N/OCCCCO)c(F)c(F)c1Nc1ccc(I)cc1F	pIC50	7.35
CNCCO/N=C/c1cc(C(=O)NOCCO)c(Nc2ccc(I)cc2F)c(F)c1F	pIC50	7.07

(I) CSCCO/N=C/c1cc(C(=O)NOCCO)c(Nc2ccc(I)cc2F)c(F)c1F
(II) O=C(NOCCO)c1cc(/C=N\OCCO)c(F)c(F)c1Nc1ccc(I)cc1F
(III) COCCO/N=C/c1cc(C(=O)NOCCO)c(Nc2ccc(I)cc2F)c(F)c1F
(IV) CS(=O)(=O)CCO/N=C/c1cc(C(=O)NOCCO)c(Nc2ccc(I)cc2F)c(F)c1F
Please order the records by their reported pIC50, lowest number first. To answer, write out the labels according to the requested order.
III, I, IV, II
(III: 6.40, I: 6.63, IV: 7.17, II: 7.51)

The reported numbers originate from patent US8084645B2.
